TARGET_ENTITY: HLA-A*03:01
EXPERIMENT_DESCRIPTION: IEDB peptide-MHC binding, purified MHC/direct/fluorescence; filed as Kd, often an IC50 or EC50 that approximates it; bounds were set here for any values at or beyond the usual limits of such assays
ASSAY_CONTEXT: source organism: Rickettsia canadensis
pKd: −log10 of the molar value.
METRIC_NAME: pKd

sequence_content=SSEADCFTY reported_result="≤ 4.70"

---

Recorded pKd values for a group of sequences are listed next.
TARGET_ENTITY: HLA-B*15:01
EXPERIMENT_DESCRIPTION: IEDB peptide-MHC binding, purified MHC/direct/fluorescence; filed as Kd, often an IC50 or EC50 that approximates it; bounds were set here for any values at or beyond the usual limits of such assays
ASSAY_CONTEXT: source organism: Marburg virus - Musoke, Kenya, 1980
pKd: −log10 of the molar value.
METRIC_NAME: pKd

sequence_content=KRLLLKLDF metric_name=pKd inequality_sign=≤ reported_result=4.70
sequence_content=NQECWDSVF metric_name=pKd inequality_sign== reported_result=6.43

---

TARGET_ENTITY: HLA-A*11:01
EXPERIMENT_DESCRIPTION: IEDB peptide-MHC binding, purified MHC/direct/fluorescence; filed as Kd, often an IC50 or EC50 that approximates it; bounds were set here for any values at or beyond the usual limits of such assays
ASSAY_CONTEXT: source organism: Yersinia pestis
METRIC_NAME: Kd

sequence_content=YGLGSTPLY metric_name=Kd reported_result="≥ 20 µM"

---

TARGET_ENTITY: HLA-B*15:01
EXPERIMENT_DESCRIPTION: IEDB peptide-MHC binding, purified MHC/direct/fluorescence; filed as Kd, often an IC50 or EC50 that approximates it; bounds were set here for any values at or beyond the usual limits of such assays
ASSAY_CONTEXT: source organism: Influenza A virus (A/Hong Kong/507/97(H5N1))
pKd: −log10 of the molar value.
METRIC_NAME: pKd

sequence_content=GTSKIKMKW metric_name=pKd reported_result="≤ 4.70"

---

TARGET_ENTITY: HLA-A*02:06
EXPERIMENT_DESCRIPTION: IEDB peptide-MHC binding, purified MHC/competitive/radioactivity; filed as Kd, often an IC50 or EC50 that approximates it; bounds were set here for any values at or beyond the usual limits of such assays
ASSAY_CONTEXT: source organism: Dengue virus 3 Martinique/1243/1999
METRIC_NAME: Kd

sequence_content=VIFILLMLV reported_result="2.35 µM"

---

TARGET_ENTITY: HLA-B*15:17
EXPERIMENT_DESCRIPTION: IEDB peptide-MHC binding, purified MHC/direct/fluorescence; filed as Kd, often an IC50 or EC50 that approximates it; bounds were set here for any values at or beyond the usual limits of such assays
ASSAY_CONTEXT: source organism: Giardia lamblia ATCC 50803
METRIC_NAME: Kd

sequence_content=FMKVKFEAL metric_name=Kd reported_result="≥ 20 µM"
sequence_content=PPPPLQHPI metric_name=Kd reported_result="≥ 20 µM"
sequence_content=LLIQGLKTV metric_name=Kd reported_result="≥ 20 µM"

---

TARGET_ENTITY: HLA-B*58:01
EXPERIMENT_DESCRIPTION: IEDB peptide-MHC binding, purified MHC/direct/fluorescence; filed as Kd, often an IC50 or EC50 that approximates it; bounds were set here for any values at or beyond the usual limits of such assays
ASSAY_CONTEXT: source organism: Corynebacterium glutamicum
pKd: −log10 of the molar value.
METRIC_NAME: pKd

sequence_content=VLPVPGASV reported_result="≤ 4.70"
